target: SARS-CoV-2 M^pro (Severe acute respiratory syndrome coronavirus 2, UniProt P0DTD1); assay: In vitro FRET enzymatic assay (screening at 1 µM and SAR IC50); assay type: biochemical; settings: read-out: M^pro inhibition % (comp. conc. 1 µM)
# inhibition at 1 µM values compiled below
Write the value in % as a bare number.

chemical_smiles=N#Cc1cc(C(=O)N[C@H](CC2CCC2)C(=O)N[C@H](CC(=O)N[C@H](Cc2ccncc2)C(=O)O)Cc2c[nH]c3ccccc23)ccn1 measured_on="SARS-CoV-2 M^pro (Severe acute respiratory syndrome coronavirus 2, UniProt P0DTD1)" endpoint_label="inhibition at 1 µM" observed_result=97
chemical_smiles=N#Cc1cc(C(=O)N[C@H](CC2CCC2)C(=O)N[C@H](CC(=O)N[C@H](Cc2ccncc2)C(=O)NCCN2CCOCC2)Cc2c[nH]c3ccccc23)ccn1 measured_on="SARS-CoV-2 M^pro (Severe acute respiratory syndrome coronavirus 2, UniProt P0DTD1)" endpoint_label="inhibition at 1 µM" observed_result=94.2
chemical_smiles=O=Cc1cccc(C(=O)N[C@H](CC2CCC2)C(=O)N[C@H](CC(=O)N[C@H](Cc2ccncc2)C(=O)O)Cc2c[nH]c3ccccc23)c1 measured_on="SARS-CoV-2 M^pro (Severe acute respiratory syndrome coronavirus 2, UniProt P0DTD1)" endpoint_label="inhibition at 1 µM" observed_result=100

Query block: Please report the recorded inhibition at 1 µM for `N#Cc1cc(C(=O)N[C@H](Cc2ccc(Cl)cc2)C(=O)N[C@H](CC(=O)N[C@H](Cc2ccncc2)C(=O)O)Cc2c[nH]c3ccccc23)ccn1` .
Result block: 95.7

Query block: Now try `N#Cc1cc(C(=O)N[C@H](CC2CCC2)C(=O)N[C@H](CC(=O)N[C@H](Cc2ccncc2)C(=O)NCCc2c[nH]c3ccccc23)Cc2c[nH]c3ccccc23)ccn1` .
Result block: 94.7

---

biological target: SARS-CoV-2 M^pro (Severe acute respiratory syndrome coronavirus 2, UniProt P0DTD1); test: In vitro FRET enzymatic assay (screening at 1 µM and SAR IC50); assay type: biochemical; conditions: IC50 M^pro
endpoint label: IC50 (nM)
Write the value in nM as a bare number.

Query block: Please report the recorded IC50 for N#Cc1cc(C(=O)N[C@H](CC2CCC2)C(=O)N[C@H](CC(=O)N[C@H](Cc2ccncc2)C(=O)NCCc2c[nH]c3ccccc23)Cc2c[nH]c3ccccc23)ccn1 [MP16] .
Result block: 47

---

molecular target: UniProt:P0DTD1; experiment: In vitro FRET enzymatic assay (screening at 1 µM and SAR IC50); assay type: biochemical
# M^pro inhibition % (comp. conc. 1 µM) values compiled below
Give the figure together with its unit, number first.

Solved entries:
chemical_smiles=N#Cc1cc(C(=O)N[C@H](CC2CCC2)C(=O)N[C@H](CC(=O)N[C@H](Cc2ccccc2)C(=O)O)Cc2c[nH]c3ccccc23)ccn1 endpoint_label="M^pro inhibition % (comp. conc. 1 µM)" observed_result=30.4%
chemical_smiles=N#Cc1cc(C(=O)N[C@H](CC2CCC2)C(=O)N[C@H](CC(=O)O)Cc2c[nH]c3ccccc23)ccn1 endpoint_label="M^pro inhibition % (comp. conc. 1 µM)" observed_result=2.2%
chemical_smiles=N#Cc1cccc(C(=O)N[C@H](CC2CCC2)C(=O)N[C@H](CC(=O)N[C@H](Cc2ccncc2)C(=O)O)Cc2c[nH]c3ccccc23)c1 endpoint_label="M^pro inhibition % (comp. conc. 1 µM)" observed_result=17.8%
chemical_smiles=N#Cc1cc(C(=O)N[C@H](CC2CCC2)C(=O)NCCC(=O)N[C@H](Cc2ccncc2)C(=O)O)ccn1 endpoint_label="M^pro inhibition % (comp. conc. 1 µM)" observed_result=8.1%

Query block: Please report the recorded M^pro inhibition % (comp. conc. 1 µM) for `CC(=O)c1cccc(C(=O)N[C@H](CC2CCC2)C(=O)N[C@H](CC(=O)N[C@H](Cc2ccncc2)C(=O)O)Cc2c[nH]c3ccccc23)c1` .
Result block: 18.2%
